molecular target: Sodium channel protein type 9 subunit alpha (Homo sapiens, UniProt Q15858); assay: Inhibition of human Nav1.7 expressed in HEK293 cells at holding potential yielding 20 to 50% inactivation measured after 3 mins by patchXpress electrophysiology assay; format: cell-based
Sequence (Q15858 whole entry): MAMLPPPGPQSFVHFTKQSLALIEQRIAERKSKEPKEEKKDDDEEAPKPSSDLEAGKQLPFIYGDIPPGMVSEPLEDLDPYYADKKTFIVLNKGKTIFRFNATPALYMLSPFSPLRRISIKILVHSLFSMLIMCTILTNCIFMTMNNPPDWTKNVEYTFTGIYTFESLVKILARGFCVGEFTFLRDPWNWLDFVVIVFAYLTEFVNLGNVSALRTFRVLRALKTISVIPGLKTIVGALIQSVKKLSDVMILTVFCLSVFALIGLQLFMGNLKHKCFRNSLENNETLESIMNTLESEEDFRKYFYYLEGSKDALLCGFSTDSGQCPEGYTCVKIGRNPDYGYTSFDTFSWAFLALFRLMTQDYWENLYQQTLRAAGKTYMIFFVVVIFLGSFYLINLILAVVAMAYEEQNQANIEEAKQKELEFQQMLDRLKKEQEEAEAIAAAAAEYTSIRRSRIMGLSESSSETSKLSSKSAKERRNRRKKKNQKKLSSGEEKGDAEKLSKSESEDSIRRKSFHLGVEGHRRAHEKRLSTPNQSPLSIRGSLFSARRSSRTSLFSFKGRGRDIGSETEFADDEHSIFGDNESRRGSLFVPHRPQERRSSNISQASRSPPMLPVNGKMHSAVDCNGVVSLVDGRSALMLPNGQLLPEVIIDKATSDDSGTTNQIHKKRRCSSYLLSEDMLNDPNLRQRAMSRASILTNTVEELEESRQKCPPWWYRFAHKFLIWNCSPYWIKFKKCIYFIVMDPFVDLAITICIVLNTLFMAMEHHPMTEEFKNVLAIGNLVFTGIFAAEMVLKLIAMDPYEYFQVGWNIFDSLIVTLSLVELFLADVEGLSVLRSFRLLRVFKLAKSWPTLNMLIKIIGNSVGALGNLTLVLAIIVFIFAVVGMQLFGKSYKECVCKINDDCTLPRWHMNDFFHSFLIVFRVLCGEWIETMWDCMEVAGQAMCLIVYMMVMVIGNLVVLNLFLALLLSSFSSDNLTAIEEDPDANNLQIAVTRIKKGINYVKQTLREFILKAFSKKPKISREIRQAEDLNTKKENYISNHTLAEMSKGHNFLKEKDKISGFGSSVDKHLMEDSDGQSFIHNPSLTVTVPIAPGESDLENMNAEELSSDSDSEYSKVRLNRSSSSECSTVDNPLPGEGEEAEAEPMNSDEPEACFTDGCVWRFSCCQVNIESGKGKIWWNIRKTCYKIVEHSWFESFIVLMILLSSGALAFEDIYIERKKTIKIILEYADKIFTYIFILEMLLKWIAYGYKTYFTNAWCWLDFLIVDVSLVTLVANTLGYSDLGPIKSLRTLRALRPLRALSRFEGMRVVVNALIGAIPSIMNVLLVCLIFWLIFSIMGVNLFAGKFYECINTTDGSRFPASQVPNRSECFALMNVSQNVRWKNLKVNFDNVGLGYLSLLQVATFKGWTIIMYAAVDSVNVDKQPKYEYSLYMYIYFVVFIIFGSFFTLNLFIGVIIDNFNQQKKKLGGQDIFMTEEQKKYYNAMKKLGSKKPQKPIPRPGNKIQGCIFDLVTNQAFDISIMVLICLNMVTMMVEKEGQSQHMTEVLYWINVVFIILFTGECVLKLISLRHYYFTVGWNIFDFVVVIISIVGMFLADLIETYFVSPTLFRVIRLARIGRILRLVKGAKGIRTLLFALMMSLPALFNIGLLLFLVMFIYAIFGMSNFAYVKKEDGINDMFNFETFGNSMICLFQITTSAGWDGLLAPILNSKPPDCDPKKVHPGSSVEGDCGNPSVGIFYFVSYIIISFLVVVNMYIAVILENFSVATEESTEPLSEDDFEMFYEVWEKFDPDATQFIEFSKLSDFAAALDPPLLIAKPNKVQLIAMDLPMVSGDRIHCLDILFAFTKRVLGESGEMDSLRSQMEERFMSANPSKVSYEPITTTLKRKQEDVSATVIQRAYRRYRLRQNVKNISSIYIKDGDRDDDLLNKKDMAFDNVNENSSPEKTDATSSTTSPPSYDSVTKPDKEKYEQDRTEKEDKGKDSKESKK
pIC50: −log10 of the molar value.
Output Fulfilled for pIC50 not less than 8; output Not fulfilled otherwise.

In [3]: df
Out[3]:
                               query_smiles  class_assignment
0  COc1cc(-c2cc(F)cc(Cl)c2)c(F)cc1-n1c2c(ccc1=O)CN(S(=O)(=O)Nc1ccon1)CC2         Fulfilled
1  COc1cc(-c2cccc(C(F)(F)F)c2)c(F)cc1-n1c2c(ccc1=O)CN(S(=O)(=O)Nc1ccon1)CC2         Fulfilled
2  COc1cc(-c2ccc(Cl)c(C)c2)c(F)cc1-n1c2c(ccc1=O)CN(S(=O)(=O)Nc1cccnn1)CC2     Not fulfilled
3  COc1cc(-c2cccc(OC(F)F)c2)c(F)cc1-n1c2c(ccc1=O)CN(S(=O)(=O)Nc1ccon1)CC2         Fulfilled
4  COc1cc(-c2ccc(F)c(F)c2)c(F)cc1-n1c2c(ccc1=O)CN(S(=O)(=O)Nc1cccnn1)CC2     Not fulfilled
